Attribute: pEC50
Tested on: Plasmodium falciparum
Assay: NOVARTIS: Inhibition of Plasmodium falciparum 3D7 (drug-susceptible) proliferation in erythrocyte-based infection assay
Assay type: functional, organism-based
Conditions: Plasmodium falciparum, 3D7
pEC50: −log10 of the molar value.

Sample answers from the record:
CC1=C2C(=O)c3ccccc3C2NC(=O)N1 (stereo unspecified) = < 6.45
Cc1sc2ncn(CC(=O)N(C)Cc3ccccc3)c(=O)c2c1S(=O)(=O)N1CCOCC1 = < 5.90
O=C1[C@@H]2CCCN2C(=O)C(c2ccc(Oc3ccccc3)cc2)N1CCc1ccccn1 (stereo partly specified) = < 5.90

Data point: CC=C[C@H]1O[C@@](O)([C@H](C)C(O)C(C)[C@@H]2OC(=O)C(OC)=CC(C)=C[C@H](C)[C@H](O)[C@H](CC)[C@H](O)C(C)CC(C)=CC=C[C@H]2OC)C[C@@H](O[C@@H]2C[C@H](O)[C@@H](OC(N)=O)[C@H](C)O2)[C@@H]1C (stereo partly specified) ; pEC50 = < 6.30

Data point: CC(=O)c1c(C)oc2ccc(NS(=O)(=O)c3cccc(C(=O)O)c3)cc12 ; pEC50 = < 5.90

Data point: O=C(Nc1ccc(C(c2ccccc2)(c2ccccc2)c2ccc(NC(=O)c3cccc([N+](=O)[O-])c3)cc2)cc1)c1cccc([N+](=O)[O-])c1 ; pEC50 = < 5.90

----------
Test system: Plasmodium falciparum
Test: NOVARTIS: Inhibition of Plasmodium falciparum W2 (drug-resistant) proliferation in erythrocyte-based infection assay
Assay type: functional, organism-based
Conditions: Plasmodium falciparum, W2; read-out: EC50
property: EC50

Sample answers from the record:
CC(C)[C@@H](CO)Nc1ccnc2c(-c3ccccc3F)cnn12 = > 0.272 µM
O=[N+]([O-])c1ccc(-c2nc3ccccc3n2-c2cc(-c3ccccc3)nn2-c2ccccc2)cc1 = > 0.611 µM
CCCC1=[N+](CC(=O)c2ccc(C)cc2)CCn2c(C)ccc21 = > 0.618 µM
O=C(OC(C(=O)NCc1ccco1)c1ccc(F)cc1)c1ccco1 (configuration not stated) = > 0.327 µM
COc1ccc([N+](=O)[O-])cc1NC(=O)C(C)Nc1ccc(N(C)C)cc1 (configuration not stated) = 0.86 µM
CN(C)c1nnc(C(C#N)=Cc2cc(C(=O)c3cccc(Cl)c3)cn2C)o1 = 1.03 µM

Pending compound:
Data point: CCc1cc2c(cc1-c1csc(NC(=N)N)n1)C(C)(C)CCC2(C)C ; EC50 = 0.961 µM

----------
Attribute: EC50
Tested on: Plasmodium falciparum
Assay: NOVARTIS: Inhibition of Plasmodium falciparum 3D7 (drug-susceptible) proliferation in erythrocyte-based infection assay
Type: functional, organism-based
Conditions: Plasmodium falciparum, 3D7

N[C@@H](COP(=O)(O)O)C(=O)O = 1080 nM
O=C(Nc1ccc(-c2nnc(-c3ccccc3)o2)cc1)c1ccc(Br)cc1 = 750 nM
O=C(NCc1cc2cc3c(cc2nc1Cl)OCO3)c1ccco1 = > 586 nM
O=C(Nc1ccc(-n2cccn2)cc1)C1CCN(CC=Cc2ccccc2)CC1 = 887 nM
CC(C)OC(=O)CSc1nnc(CNc2nc(-c3ccccc3)cs2)n1C = 1390 nM

Data point: CC(OC(=O)c1ccccc1N1C(=O)C2C3C=CC(C4CC34)C2C1=O)C(=O)c1ccccc1 (configuration not stated) ; EC50 = 961 nM

Data point: COc1ccc(CCNC(=S)Nc2ccccc2C)cc1OC ; EC50 = 1100 nM

Data point: Cc1cc(C)n(N=Cc2ccc(Cl)cc2)c(=O)c1C#N ; EC50 = 1070 nM

Data point: CCN1CCN(Cc2ccc(-c3cc4c(N[C@H](C)c5ccccc5)ncnc4[nH]3)cc2)CC1 ; EC50 = 1380 nM

Data point: CCn1c(SCc2ccc(Cl)cc2Cl)nc2sc3c(c2c1=O)CCN(C)C3 ; EC50 = 942 nM

Data point: Ic1nc2ccccc2s1 ; EC50 = > 295 nM

Data point: CCC(c1nc2ccccc2c(=O)n1-c1ccc(F)cc1)N(CCc1ccccc1)C(=O)CCc1ccccc1 (configuration not stated) ; EC50 = 1520 nM

----------
Test system: Plasmodium falciparum
Test: NOVARTIS: Inhibition of Plasmodium falciparum W2 (drug-resistant) proliferation in erythrocyte-based infection assay
Assay type: functional, organism-based
Settings: Plasmodium falciparum, W2; read-out: EC50
Attribute: log10 EC50
Please keep in mind that the values are log10 of EC50 expressed in nM.

CC(C)(C)CC(C)(C)Nc1c(-c2ccccc2OC(=O)c2cccc(Br)c2)nc2ccccn12 = 2.92
CCOc1ccc(-c2cc(C)[n+](CCO)c(-c3ccc(OCC)cc3)c2)cc1 = 2.55
C/C(Cl)=C/C[N+]1(CC#Cc2cccc3ccccc23)CCOCC1 = 2.65

Data point: Cc1nc2ccccc2n1S(C)(=O)=O ; log10 EC50 = 1.73

Data point: O=C(C1CC1)N1CCc2cc(Br)cc(S(=O)(=O)N3CCCCCC3)c21 ; log10 EC50 = 2.92

----------
Assay: NOVARTIS: Cytotoxicity against human hepatocellular carcinoma cell line (Huh7)
Format: toxicity, cell-based, Huh-7
Settings: Huh7 cells (hepatocellular carcinoma cell line)
property: CC50

Sample answers from the record:
Cc1ccnc(NS(=O)(=O)c2ccc(NC(=O)C(C)C)cc2)n1 = > 100 µM
Cc1ccccc1Cn1c(N2CCC(C(=O)NCc3ccccn3)CC2)nc2ccccc21 = > 100 µM
Nc1ccc2nc(C=Cc3ccc(Cl)cc3)[nH]c2c1 = 6.9 µM
CCC1CCCCN1CCCNC(=O)c1cn(CC)c(=O)c2cc(OC)c(OC)cc12 (stereo not given) = > 100 µM
CCCCN(CCCC)C(=O)Cn1ccc(=N)c2ccccc21 = > 100 µM
Cc1cccc(-c2ccc(NC(=O)C3CCN(Cc4cnc(C)nc4)CC3)cc2)c1 = > 100 µM
CCCCCCc1ccc(C(=O)N(C)CCCNc2ccnc3cc(Cl)ccc23)cc1 = > 10.8 µM
Cc1cc(-c2cncnc2C2CCN(C(=O)c3cc(C(C)C)n[nH]3)CC2)on1 = > 10 µM
CCCCc1ccc(C(=O)NCCCCNc2ccnc3cc(Cl)ccc23)cc1 = > 10 µM
COc1cc(OC)cc(C(=O)N2CCN(Cc3cccc(Br)c3)CC2)c1 = > 100 µM

Data point: COc1cc(/C=C/C(=O)Nc2ccc3nc(N4CCN(c5ncccn5)CC4)cc(C)c3c2)cc(OC)c1OC ; CC50 = > 10 µM

Data point: CCN1/C(=C/c2sc3ccc(OC)cc3[n+]2CC)C=Cc2cc(C)ccc21 ; CC50 = > 10 µM

Data point: CCN(CC)Cc1cc(Nc2ccnc3cc(Cl)ccc23)ccc1O ; CC50 = > 100 µM

Data point: Cc1ccc([N+](=O)[O-])cc1-c1ccc(/C=C2/SC(=S)N(CC(=O)O)C2=O)o1 ; CC50 = > 10 µM

Data point: COc1cc(C=NNc2nc3nonc3nc2Nc2ccc(Cl)cc2)ccc1O ; CC50 = > 10 µM

Data point: COc1ccc(-n2nc3c(c2NC(=O)/C=C\c2cc(OC)c(OC)c(OC)c2)CSC3)cc1 ; CC50 = > 10 µM

Data point: CCOc1ccc2c(C)nc(NC(N)=NC(C)=O)nc2c1 ; CC50 = > 100 µM

Data point: CCC(SC1=Nc2ccccc2C2=NC(C(C)C)C(=O)N12)C(=O)Nc1cccc(C)c1 (stereo not given) ; CC50 = > 100 µM

Data point: CCN(CC)CCCN(Cc1cc2ccc(C)cc2[nH]c1=O)C(=S)Nc1cccc(Cl)c1 ; CC50 = 22.1 µM

Data point: O=C(NN=Cc1cccc(Cl)c1)C1COc2ccccc2O1 (stereo not given) ; CC50 = > 10 µM

Data point: Cc1ccc2c(Cl)c(C(=O)N3CC(C)OC(C)C3)sc2c1 (stereo not given) ; CC50 = > 100 µM

Data point: N#Cc1c2c(c(N3CCN(CCO)CC3)n3c1nc1ccccc13)CCC2 ; CC50 = > 100 µM

----------
Attribute: EC50
Test system: Plasmodium falciparum
Assay: NOVARTIS: Inhibition of Plasmodium falciparum 3D7 (drug-susceptible) proliferation in erythrocyte-based infection assay
Assay type: functional, organism-based
Conditions: Plasmodium falciparum, 3D7

Sample answers from the record:
O=C(NCCCN1CCCC1=O)C(=O)NCC(c1ccco1)N1CCOCC1 (stereo unspecified) = > 1.25 µM
CC1(C)Oc2ccc(C(=O)N3CCCC3)cc2N(CCc2ccccc2)C1=O = > 1.12 µM

Pending compound:
Data point: COc1cc(OC)c(OC)cc1CN1CCN(C(C)C)CC1 ; EC50 = > 1.01 µM

----------
Experiment: NOVARTIS: Cytotoxicity against human hepatocellular carcinoma cell line (Huh7)
Type: toxicity, cell-based, Huh-7
Conditions: Huh7 cells (hepatocellular carcinoma cell line)
property: CC50

Sample answers from the record:
O=C(c1ccc([N+](=O)[O-])cc1)c1ccc(Cl)c(Cl)c1 = > 100 µM
COc1cc(/C=C(\C#N)c2nc3ccccc3[nH]2)ccc1OCc1ccc(Cl)cc1 = > 10 µM
CCCCCN(C(=O)c1ccc2ccccc2c1)C(CC)c1nc2ccccc2c(=O)n1-c1ccccc1OC (stereo not given) = > 10 µM

Data point: Cc1cc(Nc2ccc(Br)cc2)nc2ccccc12 ; CC50 = > 10 µM

Data point: O=C(CN1CCCC1)N1N=C(c2cccs2)CC1c1ccc(F)cc1 (stereo not given) ; CC50 = > 100 µM

Data point: CCN(CC)S(=O)(=O)c1ccc(-c2csc(Nc3ccc(C)c(C)c3)n2)cc1 ; CC50 = > 100 µM

Data point: O=S(=O)(NCCCCNc1ccnc2cc(Cl)ccc12)c1cc(Cl)ccc1Cl ; CC50 = > 10.7 µM

Data point: CCCCN1Cc2ccc(C(N)=O)cc2N=C1C1CC1 ; CC50 = > 11.4 µM

Data point: CCN(CC)c1ccc(NC(=O)C2Cc3ccccc3CN2S(=O)(=O)c2ccc(F)cc2)cc1 (stereo not given) ; CC50 = > 100 µM

Data point: Cc1ccccc1OCC(O)Cn1c(NC2CCCCC2)nc2c1c(=O)[nH]c(=O)n2C (stereo not given) ; CC50 = > 10 µM

Data credit: ChEMBL document CHEMBL1156829
